# Test system: LOX IMVI melanoma
# assay name: NCI tumour cell line growth inhibition, 48 h
measurement name: GI50

CC[C@]12C=CCN3CC[C@@]4(c5ccc(OC)cc5N(C)[C@H]4[C@@](O)(C(=O)OC)[C@@H]1OC(=O)CCCC[P+](c1ccc(OC)cc1)(c1ccc(OC)cc1)c1ccc(OC)cc1)[C@@H]32    1110 nM

Just so you know, measured GI50 for COc1cc(-c2ccc3ncnc(N4CCc5ccc(Cl)cc54)c3c2)cnc1Cl came out at 2970 nM

Measured GI50, CNS(=O)(=O)N1CCc2c(Br)c3c(c(OC)c2C1CCc1ccccc1)OCO3 (centres undefined) : 10100 nM

Item: COc1ccsc1/C=N/NC(=O)c1[nH]c2ccc(Br)cc2c1-c1ccccc1 | GI50: 519 nM

----------
# System: KM12 colon
# assay name: NCI tumour cell line growth inhibition, 48 h
measurement name: TGI (µM)
Lab book: enter the figure in µM, no units written.

COc1ccsc1/C=N/NC(=O)c1[nH]c2ccc(Br)cc2c1-c1ccccc1    13.8
CNS(=O)(=O)N1CCc2c(Br)c3c(c(OC)c2C1CCc1ccccc1)OCO3 (centres undefined)    78.1

GET /value?item= CC[C@]12C=CCN3CC[C@@]4(c5ccc(OC)cc5N(C)[C@H]4[C@@](O)(C(=O)OC)[C@@H]1OC(=O)CCCC[P+](c1ccc(OC)cc1)(c1ccc(OC)cc1)c1ccc(OC)cc1)[C@@H]32 &field=TGI returns 1.99

----------
# Tested on: MDA-MB-468 breast
# assay name: NCI tumour cell line growth inhibition, 48 h
measurement name: TGI (µM)
Hi! Could you send only the number? It should be in µM, unit omitted.

Use the examples below as a reference point.
COc1cc(C(=O)/C=C/c2cccnc2Nc2ccc(Cl)cc2)cc(OC)c1OC    2.67
CNS(=O)(=O)N1CCc2c(Br)c3c(c(OC)c2C1CCc1ccccc1)OCO3 (configuration not stated)    35.5
CCN(CC)CCOc1ccc(/C(=C(\C)Cc2ccc(OC)cc2)c2ccc(O)cc2)cc1    3.05
COc1cc(-c2ccc3ncnc(N4CCc5ccc(Cl)cc54)c3c2)cnc1Cl    4.47

# next molecule below
Notebook: O=C(Nc1nc2ccc(OC(F)(F)F)cc2s1)c1ccc(F)cc1 , TGI read as 7.36

----------
# Tested on: MDA-MB-468 breast
# assay name: NCI tumour cell line growth inhibition, 48 h; in the data active = GI50 below about 0.43 µM; inactive = the rest
Outcome (select one): active, inactive

Example entries and their recorded answers appear below.
CCN1C[C@@H](C)n2c(c(O)c3c(=O)n(Cc4ccc(F)c(Cl)c4)nc(C(=O)NC)c32)C1=O    inactive
CC[C@]12C=CCN3CC[C@@]4(c5ccc(OC)cc5N(C)[C@H]4[C@@](O)(C(=O)OC)[C@@H]1OC(=O)CCCC[P+](c1ccc(OC)cc1)(c1ccc(OC)cc1)c1ccc(OC)cc1)[C@@H]32    active
Oc1ccc(/C=N/NC(=S)Nc2ccccc2)nc1    inactive

In this assay, the call recorded for COc1cc(-c2ccc3ncnc(N4CCc5ccc(Cl)cc54)c3c2)cnc1Cl was what? inactive

What was the test verdict on C=CCc1cc(O)ccc1O ? inactive

Kindly provide the recorded test outcome for the following compound: N#Cc1c(-c2ccccc2)nc(SCC(O)CN2CCOCC2)nc1N1CCOCC1 (stereo not drawn) inactive

Name the outcome recorded for CN1C(=O)[C@@H](CC2CCCC2)N(C2CCCC2)c2nc(Nc3cc(Cl)c(O)c(Cl)c3)ncc21 in the assay. inactive

Dear colleague, could you share the recorded outcome for CNS(=O)(=O)N1CCc2c(Br)c3c(c(OC)c2C1CCc1ccccc1)OCO3 (stereo not drawn) when you have a moment? inactive

----------
# System: MDA-MB-468 breast
# assay name: NCI tumour cell line growth inhibition, 48 h
measurement name: TGI (µM)
// note: answer is a bare numeric in µM

Nc1ncc(-c2ccc3ncnc(N4CCc5cc(F)c(Cl)cc54)c3c2)cc1C=O    1.63
CCN(CC)CCOc1ccc2c(-c3ccccc3)c(-c3ccc(OC)cc3)c(=O)oc2c1    8.73
Cc1ccc(NC(=O)c2cc(/C=C/C(=O)NO)cc(C(F)(F)F)c2)cc1Nc1nccc(-c2cccnc2)n1    3.94

Recorded TGI (molecule CCN(CC)Cc1cc(Nc2ccnc3ccc(OC)cc23)ccc1O ): 4.47

The molecule Oc1c(Cl)cc(Cl)c(Cl)c1Cc1c(O)c(Cl)cc(Cl)c1Cl showed TGI equal to 8.45

----------
# Test system: MDA-MB-468 breast
# assay name: NCI tumour cell line growth inhibition, 48 h
measurement name: GI50

CCN(CC)CCOc1ccc2c(-c3ccccc3)c(-c3ccc(OC)cc3)c(=O)oc2c1    2.58 µM

Per the record, CCNCCS(=O)(=O)NC[C@@]1(c2ccccc2)SC(NC(=O)C(C)(C)C)=NN1C(=O)C(C)(C)C has GI50 of < 0.01 µM

Looking up Cn1cc(Nc2nccc(-c3ccc4c(c3)CN(C3COC3)CC[C@H]4NC(=O)c3cn(C(C)(C)C)nn3)n2)cn1 , I found its GI50 recorded as 39 µM

# GI50 of COc1cc(C2C=C(C)N=C3SC=C(C)N32)cc(OC)c1OC (stereo not given) = 1.12 µM

Just so you know, measured GI50 for Cc1cc(NS(=O)(=O)c2ccc(-c3cnc(C4CC4)o3)cc2)ccc1Cl came out at 0.165 µM

In plain terms, O=C(Nc1nc2ccc(OC(F)(F)F)cc2s1)c1ccc(F)cc1 has a documented GI50 of 2.36 µM

----------
Parameter: GI50. Scope: all listed entries.
# Tested on: MDA-MB-468 breast
# assay name: NCI tumour cell line growth inhibition, 48 h

Before answering, review these 3 worked examples.
Cc1ccc(/C=C(/C#N)n2nnc3cccc(F)c32)cc1    702 nM
COc1cc(C(=O)/C=C/c2cccnc2Nc2ccc(Cl)cc2)cc(OC)c1OC    1290 nM
Cc1ccc(NC(=O)c2cc(/C=C/C(=O)NO)cc(C(F)(F)F)c2)cc1Nc1nccc(-c2cccnc2)n1    1430 nM

So for CC(=O)NC(CCc1ccc(Cl)c(Cl)c1)c1cccc(O)c(=O)c1 (centres undefined) , the logged GI50 turned out to be 442 nM

Values were extracted from PubChem BioAssay (NCI).
